Test system: T47-D human breast cancer cell line
assay.notes: CellTiter-Glo cell proliferation assay, dose matrix, T47-D
Type: cell-based
experimental.conditions: 72 hrs, single agent, read-out: IC50 (cell growth)
pIC50: −log10 of the molar value.
observed.property: pIC50

For the molecule shown here, Cc1nc(NC(=O)N2CCC[C@H]2C(N)=O)sc1-c1ccnc(C(C)(C)C(F)(F)F)c1 , give the reported pIC50.
~6.48

---

Test system: BT-474 human breast cancer cell line
assay.notes: CellTiter-Glo cell proliferation assay, dose matrix, BT-474
Format: cell-based
experimental.conditions: BT-474, 72 hrs, single agent; read-out: IC50 (cell growth)
pIC50: −log10 of the molar value.
observed.property: pIC50

For the molecule shown here, Cc1nc(NC(=O)N2CCC[C@H]2C(N)=O)sc1-c1ccnc(C(C)(C)C(F)(F)F)c1 [Compound I] , give the reported pIC50.
~5.52
